Experimental system: r-N35S/Y365F/M481I rURAT1 triple point mutant (Rattus norvegicus, UniProt Q3ZAV1, M481I/N35S/Y365F)
Construct: hURAT1 and rURAT1 are 553 amino acid proteins with 12 transmembrane segments; expressed in transfected cells; host or cells: HEK-293T
Assay protocol: URAT1 uric acid transport activity assay
Format: cell-based
Quantity kind: pIC50
pIC50 is a log-scale quantity: -log10 of the concentration expressed in molar.

Query string: # query: pIC50 of entry `CCc1oc2ccccc2c1C(=O)c1cc(Br)c(O)c(Br)c1`
Result string: 6.21

###

Experimental system: r-V25M rURAT1 point mutant (Rattus norvegicus, UniProt Q3ZAV1, V25M)
Construct: expressed in transfected cells; host or cells: HEK-293T
Sequence (Q3ZAV1 1-553 V25M): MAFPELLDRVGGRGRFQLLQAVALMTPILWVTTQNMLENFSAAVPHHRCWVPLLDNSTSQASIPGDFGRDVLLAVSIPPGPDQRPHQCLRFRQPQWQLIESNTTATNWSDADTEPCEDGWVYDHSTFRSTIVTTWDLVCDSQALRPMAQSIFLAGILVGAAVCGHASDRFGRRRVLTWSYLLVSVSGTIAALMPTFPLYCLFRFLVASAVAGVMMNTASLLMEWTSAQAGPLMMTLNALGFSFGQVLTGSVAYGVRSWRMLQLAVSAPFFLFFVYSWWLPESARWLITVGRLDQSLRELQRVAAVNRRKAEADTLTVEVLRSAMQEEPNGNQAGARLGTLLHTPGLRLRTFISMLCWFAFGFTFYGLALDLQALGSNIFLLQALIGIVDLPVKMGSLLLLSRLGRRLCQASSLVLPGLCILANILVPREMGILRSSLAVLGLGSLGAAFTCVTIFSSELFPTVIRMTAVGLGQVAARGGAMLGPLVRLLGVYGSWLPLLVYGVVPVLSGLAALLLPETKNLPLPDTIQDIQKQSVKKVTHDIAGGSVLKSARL
Assay protocol: URAT1 uric acid transport activity assay
Assay type: cell-based
Particulars: r-V25M; HEPES pH 7.3; 100 μM 14C-uric acid; read-out: IC50 (uric acid transport)
Quantity kind: IC50 (µM)
Dear colleague, please return just the value in µM, with no unit written.

Query string: # query: IC50 of entry O=C1C(CC[S+]([O-])c2ccccc2)C(=O)N(c2ccccc2)N1c1ccccc1 (stereo not shown)
Result string: 14

###

Experimental system: r-V474M rURAT1 point mutant (Rattus norvegicus, UniProt Q3ZAV1, V474M)
Construct: expressed in transfected cells; host or cells: HEK-293T
Assay protocol: URAT1 uric acid transport activity assay
Type: cell-based
Particulars: r-V474M; MES pH 5.5; 100 μM 14C-uric acid; read-out: IC50 (uric acid transport)
Quantity kind: IC50 (µM)
Dear colleague, please return just the value in µM, with no unit written.

Query string: # query: IC50 of entry O=C(O)CSc1nnc(Br)n1-c1ccc(C2CC2)c2ccccc12 [lesinurad]
Result string: 84

###

Experimental system: r-A21T rURAT1 point mutant (Rattus norvegicus, UniProt Q3ZAV1, A21T)
Construct: expressed in transfected cells; host or cells: HEK-293T
Assay protocol: URAT1 uric acid transport activity assay
Format: cell-based
Quantity kind: IC50 (µM)
Dear colleague, please return just the value in µM, with no unit written.

Query string: # query: IC50 of entry `CCc1oc2ccccc2c1C(=O)c1cc(Br)c(O)c(Br)c1`
Result string: 22

###

Experimental system: r-T26V rURAT1 point mutant (Rattus norvegicus, UniProt Q3ZAV1, T26V)
Assay protocol: URAT1 uric acid transport activity assay
Format: cell-based
Quantity kind: IC50 (µM)
Dear colleague, please return just the value in µM, with no unit written.

Query string: # query: IC50 of entry `CCc1oc2ccccc2c1C(=O)c1cc(Br)c(O)c(Br)c1`
Result string: 26

###

Experimental system: r-V22M rURAT1 point mutant (Rattus norvegicus, UniProt Q3ZAV1, V22M)
Assay protocol: URAT1 uric acid transport activity assay
Format: cell-based
Particulars: r-V22M; MES pH 5.5; 100 μM 14C-uric acid; read-out: IC50 (uric acid transport)
Quantity kind: IC50 (µM)
Dear colleague, please return just the value in µM, with no unit written.

Query string: # query: IC50 of entry `O=C(O)CSc1nnc(Br)n1-c1ccc(C2CC2)c2ccccc12`
Result string: 74

###

Experimental system: h-M474V hURAT1 point mutant (Homo sapiens, UniProt Q96S37, M474V)
Assay protocol: URAT1 uric acid transport activity assay
Particulars: HEPES pH 7.3, 100 μM 14C-uric acid
Quantity kind: IC50 (µM)
Dear colleague, please return just the value in µM, with no unit written.

Query string: # query: IC50 of entry O=C1C(CC[S+]([O-])c2ccccc2)C(=O)N(c2ccccc2)N1c1ccccc1 (stereo not shown)
Result string: 30

###

Experimental system: r-Y365F rURAT1 point mutant (Rattus norvegicus, UniProt Q3ZAV1, Y365F)
Assay protocol: URAT1 uric acid transport activity assay
Type: cell-based
Particulars: r-Y365F; HEPES pH 7.3; 100 μM 14C-uric acid; read-out: IC50 (uric acid transport)
Quantity kind: pIC50
pIC50 is a log-scale quantity: -log10 of the concentration expressed in molar.

Query string: # query: pIC50 of entry O=C1C(CC[S+]([O-])c2ccccc2)C(=O)N(c2ccccc2)N1c1ccccc1 (stereo not shown)
Result string: 3.59

###

Experimental system: r-L18V rURAT1 point mutant (Rattus norvegicus, UniProt Q3ZAV1, L18V)
Sequence (Q3ZAV1 1-553 L18V): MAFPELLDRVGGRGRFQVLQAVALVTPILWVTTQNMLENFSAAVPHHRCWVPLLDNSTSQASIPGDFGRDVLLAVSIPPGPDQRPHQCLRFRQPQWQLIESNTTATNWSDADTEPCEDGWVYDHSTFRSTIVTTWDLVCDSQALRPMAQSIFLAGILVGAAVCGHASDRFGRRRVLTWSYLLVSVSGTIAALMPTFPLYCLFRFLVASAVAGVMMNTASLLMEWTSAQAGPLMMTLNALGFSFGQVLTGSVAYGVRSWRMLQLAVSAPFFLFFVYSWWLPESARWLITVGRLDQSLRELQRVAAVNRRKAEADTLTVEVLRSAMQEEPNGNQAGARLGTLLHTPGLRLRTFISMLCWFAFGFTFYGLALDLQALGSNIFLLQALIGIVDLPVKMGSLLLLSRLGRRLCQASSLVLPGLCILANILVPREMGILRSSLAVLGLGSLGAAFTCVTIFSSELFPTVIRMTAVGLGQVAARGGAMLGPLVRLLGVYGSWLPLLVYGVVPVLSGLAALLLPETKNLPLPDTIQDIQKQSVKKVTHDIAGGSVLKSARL
Assay protocol: URAT1 uric acid transport activity assay
Assay type: cell-based
Particulars: r-L18V; MES pH 5.5; 100 μM 14C-uric acid; read-out: IC50 (uric acid transport)
Experimental: hURAT1 (GenBank BC053348.1) and rURAT1 (NCBI NM_001034943.1) genes were purchased from Origene Technologies, Inc. and subcloned into pCMV6/neo using NotI, creating pCMV6/neo-hURAT1 and pCMV6/neo-rURAT1. […] Compounds were serially diluted into assay buffer and added to the cells for 5 minutes prior to addition of radiolabelled uric acid substrate. […] Each treatment was measured in triplicate. […]
Quantity kind: IC50 (µM)
Dear colleague, please return just the value in µM, with no unit written.

Query string: Find IC50 (r-L18V rURAT1 point mutant (Rattus norvegicus, UniProt Q3ZAV1, L18V)) for the entry `O=C(O)CSc1nnc(Br)n1-c1ccc(C2CC2)c2ccccc12`
Result string: 78

###

Experimental system: h-r TM5-C URAT1 chimera (Homo sapiens, UniProt Q96S37, A249G/A250S/G246V/H245Q)
Sequence (Q96S37 whole entry H245Q/G246V/A249G/A250S): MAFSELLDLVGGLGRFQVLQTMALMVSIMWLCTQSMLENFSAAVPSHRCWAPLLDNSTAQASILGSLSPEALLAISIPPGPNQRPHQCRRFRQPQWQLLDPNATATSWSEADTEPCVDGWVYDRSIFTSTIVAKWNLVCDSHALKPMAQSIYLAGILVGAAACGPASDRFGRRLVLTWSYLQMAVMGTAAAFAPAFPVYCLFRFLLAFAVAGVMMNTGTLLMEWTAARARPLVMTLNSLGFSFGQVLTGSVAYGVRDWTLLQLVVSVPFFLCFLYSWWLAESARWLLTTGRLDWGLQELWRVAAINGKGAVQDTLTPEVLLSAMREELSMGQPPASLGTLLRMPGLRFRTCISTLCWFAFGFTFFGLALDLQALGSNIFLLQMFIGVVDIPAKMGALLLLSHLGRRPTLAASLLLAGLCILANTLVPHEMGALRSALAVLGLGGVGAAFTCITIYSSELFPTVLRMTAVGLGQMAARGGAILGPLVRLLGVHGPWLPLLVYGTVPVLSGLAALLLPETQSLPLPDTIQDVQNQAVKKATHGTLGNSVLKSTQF
Assay protocol: URAT1 uric acid transport activity assay
Particulars: HEPES pH 7.3, 100 μM 14C-uric acid
Quantity kind: pIC50
pIC50 is a log-scale quantity: -log10 of the concentration expressed in molar.

Query string: # query: pIC50 of entry O=C1C(CC[S+]([O-])c2ccccc2)C(=O)N(c2ccccc2)N1c1ccccc1 (stereo not shown) [sulfinpyrazone]
Result string: 4.47

###

Experimental system: h-r TM9-C URAT1 chimera (Homo sapiens, UniProt Q96S37, A432I/A436S/H428R/T424I)
Assay protocol: URAT1 uric acid transport activity assay
Particulars: HEPES pH 7.3, 100 μM 14C-uric acid
Quantity kind: IC50 (µM)
Dear colleague, please return just the value in µM, with no unit written.

Query string: # query: IC50 of entry O=C1C(CC[S+]([O-])c2ccccc2)C(=O)N(c2ccccc2)N1c1ccccc1 (stereo not shown) [sulfinpyrazone]
Result string: 38

###

Experimental system: h-r TM6 URAT1 chimera (Homo sapiens, UniProt Q96S37, C272F/L274V)
Assay protocol: URAT1 uric acid transport activity assay
Particulars: HEPES pH 7.3, 100 μM 14C-uric acid
Quantity kind: IC50

Query string: # query: IC50 of entry O=C1C(CC[S+]([O-])c2ccccc2)C(=O)N(c2ccccc2)N1c1ccccc1 (stereo not shown)
Result string: 30 µM
